These data points were gathered from BindingDB's records for PubMed 8474008.

Overview of reported pKi across a group of molecules:
target: Cannabinoid receptor 1 (Rattus norvegicus, UniProt P20272)
Sequence (P20272 whole entry): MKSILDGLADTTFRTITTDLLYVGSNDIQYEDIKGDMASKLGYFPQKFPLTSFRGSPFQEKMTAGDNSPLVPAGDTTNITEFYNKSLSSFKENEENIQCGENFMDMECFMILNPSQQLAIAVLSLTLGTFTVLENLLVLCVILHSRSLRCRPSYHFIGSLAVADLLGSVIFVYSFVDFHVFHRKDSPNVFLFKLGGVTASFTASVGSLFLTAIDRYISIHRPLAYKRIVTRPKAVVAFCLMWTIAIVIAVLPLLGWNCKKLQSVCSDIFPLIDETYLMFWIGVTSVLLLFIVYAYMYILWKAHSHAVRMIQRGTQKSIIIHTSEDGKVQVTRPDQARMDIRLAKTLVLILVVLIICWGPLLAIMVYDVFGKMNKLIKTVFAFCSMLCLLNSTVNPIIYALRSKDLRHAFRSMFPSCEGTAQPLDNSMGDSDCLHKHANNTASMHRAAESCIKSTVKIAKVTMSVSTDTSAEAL
The value called pKi is obtained by taking minus log10 of the concentration in mol/L.

# annotated cases, reported pKi shown
CCCCCc1cc(O)c2c(c1)OC(C)(C)[C@@H]1CCC(CO)=C[C@@H]21 : 7.42
CC1(C)Oc2cc(CCCCC[N+](C)(C)C)cc(O)c2[C@@H]2C=C(CO)CC[C@H]21 : 5.68
CCCCCCC(C)(C)c1ccc([C@@H]2C[C@H](O)CC[C@H]2CCCCO)c(O)c1 : 8.81
CCCCCc1cc(OC)c2c(c1)OC(C)(C)[C@@H]1CCC(CF)=C[C@@H]21 : 6.97
CCCCCc1cc(O)c2c(c1)OC(C)(C)[C@@H]1C[C@@H](O)C(C)=C[C@@H]21 : 6.09
CCCCCC(C)C(C)c1cc(O)c2c(c1)OC(C)(C)C1=C2CC(C)CC1 (stereo not given) : 8.81

Entry CCCCCCCCCCC(C)(C)c1ccc([C@H]2CCC[C@@H](O)C2)c(O)c1 under Cannabinoid receptor 1 (Rattus norvegicus, UniProt P20272) had pKi of 6.42

Kindly note: Cannabinoid receptor 1 (Rattus norvegicus, UniProt P20272), C=C1CC[C@@H]2[C@@H](C1)c1c(O)cc(CCC(CC)CCC)cc1OC2(C)C (stereo not given in full) , pKi value reported: 6.01

Let me check: CCCCCCC(C)(C)c1cc(O)c2c(c1)OC(C)(C)[C@@H]1CCC(CO)=CC21 (stereo not given in full) , system Cannabinoid receptor 1 (Rattus norvegicus, UniProt P20272), measured pKi is 6.90

CCCCCc1cc(OCCCCCCN)c2c(c1)OC(C)(C)[C@@H]1CCC(C)=C[C@@H]21 tested on Cannabinoid receptor 1 (Rattus norvegicus, UniProt P20272) gave pKi: 5.76
